# assayed.system: BepE-BID1 (Bartonella henselae, UniProt A0A0R4J6H0)
# Sequence (A0A0R4J6H0 entry or part of it): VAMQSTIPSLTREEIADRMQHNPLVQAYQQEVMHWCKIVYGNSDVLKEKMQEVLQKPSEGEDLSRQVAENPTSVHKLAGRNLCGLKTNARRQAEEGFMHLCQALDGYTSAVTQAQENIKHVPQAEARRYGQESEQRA
pKd: −log10 of the molar value.
value.kind: pKd

Return reported pKd for target or system BepE-BID1 (Bartonella henselae, UniProt A0A0R4J6H0), item `CCCCCCCC/C=C\CCCCCCCC(=O)O[C@H](COC(=O)CCCCCCCCCCCCCCC)COP(=O)(O)O` .
~6.46
